FYI, the data here is from patent US20240409629A1.

Reported values of pEC50 for individual entries
# Assayed Target: T1, human CLDN18.2 (human)
# T1 construct: also called claudin18.2
# Assay Overview: FACS, NUGC-4 cells (natural CLDN18.2)
// scale note: pEC50 = -log10(conc_M); give the bare number

Worked examples follow.
humanized antibody hz28G3-2.4 (antibody, human IgG1, kappa, V domains shown) VH: QVQLVQSGAEVKKPGASVKVSCKASGYTFTDYLMLWVRQAHGQSLEWMGNINPYYGRTYYALKFQGRVTMTVDRSTSTVYMELSSLRSEDTAVYYCARDGYSLRNAMDYWGQGTLVTVSS VL: DIVMTQSPYSLAVSLGERATINCKSSQSLFNSGNQKNYLAWYQQKPGQPPKLLIYGASTRESGVPDRFTGSGSGTDFTLTISSLQAEDVAVYYCQNAHSYPYTFGQGTKVEIKR = 7.85
chimeric antibody xi28G3 (antibody, human IgG1, kappa, V domains shown, Mouse variable regions on human IgG1/kappa; defucosylated, expressed in FUT8-knockout CHO-S cells; also called chimeric 28G3) VH: EIQLQQTGPELVKPGASVTISCKTSGYSFTDYLMLWVKQSHGKSLEWIGNINPYYGRTTYNLKFKGKATLTVDRSSSTAYMQLNSLTSEDSAVYYCARDGYSLRNAMDYWGQGTSVTVSS VL: DIVMTQSPYSLSVSTGEKVTMSCKSSQSLFNSGNQKNYLAWYQQKPGQPPKLLIYGASTRESGVPDRFTGSGSGTDFTLTISSVQAEDLALYYCQNAHSYPYTFGGGTKLEIKR = 7.36
humanized antibody hz28G3-2.1 (antibody, human IgG1, kappa, V domains shown) VH: QVQLVQSGAEVKKPGASVKVSCKTSGYSFTDYLMLWVRQAPGQGLEWMGNINPYYGRTTYALKFKGRVTMTVDRSTSTVYMELSSLRSEDTAVYYCARDGYSLRNAMDYWGQGTLVTVSS VL: DIVMTQSPYSLAVSLGERATINCKSSQSLFNSGNQKNYLAWYQQKPGQPPKLLIYGASTRESGVPDRFTGSGSGTDFTLTISSLQAEDVAVYYCQNAHSYPYTFGQGTKVEIKR = 7.92
humanized antibody hz28G3-1.1 (antibody, human IgG1, kappa, V domains shown) VH: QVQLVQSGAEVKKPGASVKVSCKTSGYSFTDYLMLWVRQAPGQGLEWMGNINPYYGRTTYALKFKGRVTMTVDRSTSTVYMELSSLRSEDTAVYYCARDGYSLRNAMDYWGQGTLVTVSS VL: DIVMTQSPDSLAVSLGERATINCKSSQSLFNSGNQKNYLAWYQQKPGQPPKLLIYGASTRESGVPDRFSGSGSGTDFTLTISSLQAEDVAVYYCQNAHSYPYTFGQGTKVEIKR = 7.95

Given item humanized antibody hz28G3-2.2 (antibody, human IgG1, kappa, V domains shown) VH: QVQLVQSGAEVKKPGASVKVSCKASGYTFTDYLMLWVRQAPGQGLEWMGNINPYYGRTYYALKFQGRVTMTVDRSTSTVYMELSSLRSEDTAVYYCARDGYSLRNAMDYWGQGTLVTVSS VL: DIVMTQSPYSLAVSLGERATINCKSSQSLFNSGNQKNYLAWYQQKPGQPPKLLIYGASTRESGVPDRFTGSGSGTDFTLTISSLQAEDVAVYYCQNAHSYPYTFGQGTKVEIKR , the value recorded as its pEC50 is 7.91
